System: HEK293T cells
method-notes: Expression efficiency of capped luciferase mRNAs in HEK293T cells
Assay type: cell-based
test-context: 6 h after transfection of capped luciferase mRNA into HEK293T cells; ratio to N-7413 (= 1)
measured-property: Relative fluorescence reading
# output: bare number, no unit

Req: Observed Relative fluorescence reading on HEK293T cells for CCC[C@H]1[C@@H](O)[C@H](n2c[n+](C)c3c(=O)[nH]c(N)nc32)O[C@@H]1COP(=O)(O)OP(=O)(O)OP(=O)(O)OC[C@H]1O[C@@H](n2cnc3c(N)ncnc32)[C@H](OC)[C@@H]1OP(=O)(O)OC[C@H]1O[C@@H](n2cnc3c(=O)[nH]c(N)nc32)[C@H](O)[C@@H]1O.[Na+] , please.
Resp: 1.85

Req: Enter reported Relative fluorescence reading observed with HEK293T cells for CO[C@@H]1[C@H](OP(=O)(O)OC[C@H]2O[C@@H](n3cnc4c(=O)[nH]c(N)nc43)[C@H](O)[C@@H]2O)[C@@H](COP(=O)(O)OP(=O)(O)OP(=O)(O)OC[C@H]2O[C@@H](n3c[n+](C)c4c(=O)[nH]c(N)nc43)[C@H](O)[C@@H]2NC(=O)C(C)(C)C)O[C@H]1n1cnc2c(N)ncnc21
Resp: 1.74

Req: Query Relative fluorescence reading on HEK293T cells for C/C=C/C[C@H]1[C@@H](O)[C@H](n2c[n+](C)c3c(=O)[nH]c(N)nc32)O[C@@H]1COP(=O)(O)OP(=O)(O)OP(=O)(O)OC[C@H]1O[C@@H](n2cnc3c(N)ncnc32)[C@H](OC)[C@@H]1OP(=O)([O-])OC[C@H]1O[C@@H](n2cnc3c(=O)[nH]c(N)nc32)[C@H](O)[C@@H]1O
Resp: 1.86

Req: # get_value(readout= Relative fluorescence reading, system= HEK293T cells) for CO[C@@H]1[C@H](OP(=O)(O)OC[C@H]2O[C@@H](n3cnc4c(=O)[nH]c(N)nc43)[C@H](O)[C@@H]2O)[C@@H](COP(=O)(O)OP(=O)(O)CP(=O)(O)OC[C@H]2O[C@@H](n3c[n+](C)c4c(=O)[nH]c(N)nc43)[C@H](O)[C@@H]2CCF)O[C@H]1n1cnc2c(N)ncnc21
Resp: 1.45

Req: Enter reported Relative fluorescence reading observed with HEK293T cells for CO[C@@H]1[C@H](OP(=O)(O)OC[C@H]2O[C@@H](n3cnc4c(=O)[nH]c(N)nc43)[C@H](O)[C@@H]2O)[C@@H](COP(=O)(O)OP(=O)(O)OP(=O)(O)OC[C@H]2O[C@@H](n3c[n+](C)c4c(=O)[nH]c(N)nc43)[C@H](O)[C@@H]2CCF)O[C@H]1n1cnc2c(N)ncnc21
Resp: 1.52

Req: Provide value of Relative fluorescence reading for this record tested with HEK293T cells: CO[C@@H]1[C@H](OP(=O)(O)OC[C@H]2O[C@@H](n3cnc4c(=O)[nH]c(N)nc43)[C@H](O)[C@@H]2O)[C@@H](COP(=O)(O)OP(=O)(O)OP(=O)(O)OC[C@H]2O[C@@H](n3c[n+](C)c4c(=O)[nH]c(N)nc43)[C@H](O)[C@@H]2C)O[C@H]1n1cnc2c(N)ncnc21
Resp: 1.74

Turning to the following compound.
Req: Given the entry CO[C@@H]1[C@H](OP(=O)(O)OC[C@H]2O[C@@H](n3cnc4c(=O)[nH]c(N)nc43)[C@H](O)[C@@H]2O)[C@@H](COP(=O)(O)OP(=O)(O)OP(=O)(O)OC[C@H]2O[C@@H](n3c[n+](C)c4c(=O)[nH]c(N)nc43)[C@H](O)[C@@H]2N=[N+]=[N-])O[C@H]1n1cnc2c(N)ncnc21 , what Relative fluorescence reading was observed with HEK293T cells?
Resp: 1.51
